- method_notes: Plasma pharmacokinetics after single PO or IV administration (Example 5), LC-MS/MS
- run_conditions: female, Sprague-Dawley, rat, plasma, po, 24 mg/kg, Cmax (ng/mL) Mean ± StdDev, Group 11: 24 mg/kg PO, ORA-Plus; dosed as 2HCl, single dose

| compound | u | Cmax |
| --- | --- | --- |
| CC(C)NCCCn1c(Sc2cc3c(cc2I)OCO3)nc2c(N)ncnc21 [Compound 1] | ng/mL | 807 |

====

- method_notes: Plasma pharmacokinetics after single oral dose in ORA-Plus or SyrSpend SF (Example 6), LC-MS/MS
- Assay type: in vivo, Sprague Dawley rats
- run_conditions: female, Sprague-Dawley, rat, plasma, po, 60 mg/kg, G11: 2HCl, 60 mg/kg single oral dose, SyrSpend, rat plasma; n = 4

| compound | half-life / h |
| --- | --- |
| CC(C)(C)CNCCn1c(Sc2cc3c(cc2I)OCO3)nc2c(N)ncnc21 [Compound 2 2HCl] | 2.84 |

====

- method_notes: Plasma pharmacokinetics after single PO or IV administration (Example 5), LC-MS/MS
- run_conditions: female, Sprague-Dawley, rat, plasma, po, 48 mg/kg, Cmax (ng/mL) Mean ± StdDev, Group 13: 48 mg/kg PO, ORA-Plus; dosed as 2HCl
endpoint: Cmax (ng/mL)

| structure_as_smiles | endpoint | u | assay_result |
| --- | --- | --- | --- |
| CC(C)NCCCn1c(Sc2cc3c(cc2I)OCO3)nc2c(N)ncnc21 | Cmax | ng/mL | 1420 |

====

- method_notes: Plasma pharmacokinetics after single PO or IV administration (Example 5), LC-MS/MS
- run_conditions: female, Sprague Dawley, rat, plasma, po, 48 mg/kg, Cmax (ng/mL) Mean ± StdDev, Group 7: 48 mg/kg PO, 60 mM Citric acid buffer + 30% Captisol; free base

| structure_as_smiles | Cmax (ng/mL) |
| --- | --- |
| CC(C)(C)CNCCn1c(Sc2cc3c(cc2I)OCO3)nc2c(N)ncnc21 | 1400 |

====

- method_notes: Plasma pharmacokinetics after single oral dose in ORA-Plus or SyrSpend SF (Example 6), LC-MS/MS
- Type: in vivo, Sprague Dawley rats
- run_conditions: female, Sprague Dawley, rat, plasma, po, 24 mg/kg, G3: 2HCl, 24 mg/kg single oral dose, ORA-plus, rat plasma

| compound | AUC(0-t) / ng·h/mL |
| --- | --- |
| CC(C)(C)CNCCn1c(Sc2cc3c(cc2I)OCO3)nc2c(N)ncnc21 [Compound 2 2HCl] | 1290 |

====

- method_notes: Plasma pharmacokinetics after single oral dose in ORA-Plus or SyrSpend SF (Example 6), LC-MS/MS
- Type: in vivo, Sprague Dawley rats
- run_conditions: female, Sprague Dawley, rat, plasma, po, 24 mg/kg, G3: 2HCl, 24 mg/kg single oral dose, ORA-plus, rat plasma

| compound | Tmax, h |
| --- | --- |
| CC(C)(C)CNCCn1c(Sc2cc3c(cc2I)OCO3)nc2c(N)ncnc21 [Compound 2 2HCl] | 1.6 |

====

- method_notes: Plasma pharmacokinetics after single oral dose in ORA-Plus or SyrSpend SF (Example 6), LC-MS/MS
- Assay type: in vivo, Sprague Dawley rats
- run_conditions: female, Sprague-Dawley, rat, plasma, po, 24 mg/kg, G7: free base, 24 mg/kg single oral dose, SyrSpend, rat plasma; n = 4

| molecule | AUC(0-inf) / ng·h/mL |
| --- | --- |
| CC(C)(C)CNCCn1c(Sc2cc3c(cc2I)OCO3)nc2c(N)ncnc21 [Compound 2] | 1180 |

====

- method_notes: Plasma pharmacokinetics after single oral dose in ORA-Plus or SyrSpend SF (Example 6), LC-MS/MS
- Format: in vivo, Sprague Dawley rats
- run_conditions: female, Sprague-Dawley, rat, plasma, po, 48 mg/kg, G4: 2HCl, 48 mg/kg single oral dose, ORA-plus, rat plasma

| compound | AUC(0-t), ng·h/mL |
| --- | --- |
| CC(C)(C)CNCCn1c(Sc2cc3c(cc2I)OCO3)nc2c(N)ncnc21 [Compound 2 2HCl] | 6320 |

====

- method_notes: Plasma pharmacokinetics after single oral dose in ORA-Plus or SyrSpend SF (Example 6), LC-MS/MS
- Format: in vivo, Sprague Dawley rats
- run_conditions: female, Sprague-Dawley, rat, plasma, po, 24 mg/kg, G7: free base, 24 mg/kg single oral dose, SyrSpend, rat plasma

| structure_as_smiles | u | AUC(0-t) |
| --- | --- | --- |
| CC(C)(C)CNCCn1c(Sc2cc3c(cc2I)OCO3)nc2c(N)ncnc21 | ng·h/mL | 1270 |

====

- method_notes: Plasma pharmacokinetics after single PO or IV administration (Example 5), LC-MS/MS
- run_conditions: female, Sprague-Dawley, rat, plasma, po, 48 mg/kg, Tmax (hr) Mean ± StdDev, Group 16: 48 mg/kg PO, 0.5% Methylcellulose in water; dosed as 2HCl

| structure_as_smiles | u | Tmax |
| --- | --- | --- |
| CC(C)NCCCn1c(Sc2cc3c(cc2I)OCO3)nc2c(N)ncnc21 | h | 1.4 |

====

- method_notes: Solubility of the 2HCl salt in dosing vehicle (Example 6)
- Assay type: physicochemical
- run_conditions: SyrSpend SF Solution (dosing vehicle), aqueous with cosolvent or surfactant or cyclodextrin; pH ~2.5
- Excerpt: Dose levels of Compound 2 were based on the free base, not the salt. […] Dosage forms of Compound 2 2HCl in ORA-Plus® and in SyrSpend® SF Cherry appeared to be suspension instead of clear solutions. Final physical appearance matched that of the vehicle used. Due to opaque properties of vehicles, full solubility could not be confirmed. However, resultant dosing material appeared homogenous. Dosage forms of Compound 2 2HCl in ORA-Plus® and in SyrSpend® SF Cherry were made fresh immediately prior to use.
endpoint: solubility

| compound | assay_result |
| --- | --- |
| CC(C)(C)CNCCn1c(Sc2cc3c(cc2I)OCO3)nc2c(N)ncnc21 [Compound 2 2HCl] | 20 to 25 mg/mL |

====

- method_notes: Plasma pharmacokinetics after single PO or IV administration (Example 5), LC-MS/MS
- run_conditions: female, Sprague Dawley, rat, plasma, po, 48 mg/kg, Tmax (hr) Mean ± StdDev, Group 3: 48 mg/kg PO, ORA-Plus; free base

| structure_as_smiles | Tmax / h |
| --- | --- |
| CC(C)(C)CNCCn1c(Sc2cc3c(cc2I)OCO3)nc2c(N)ncnc21 | 2.7 |

====

- method_notes: Plasma pharmacokinetics after single oral dose in ORA-Plus or SyrSpend SF (Example 6), LC-MS/MS
- Assay type: in vivo, Sprague Dawley rats
- run_conditions: female, Sprague-Dawley, rat, plasma, po, 60 mg/kg, G11: 2HCl, 60 mg/kg single oral dose, SyrSpend, rat plasma

| compound | u | Cmax |
| --- | --- | --- |
| CC(C)(C)CNCCn1c(Sc2cc3c(cc2I)OCO3)nc2c(N)ncnc21 [Compound 2 2HCl] | ng/mL | 825 |

====

- method_notes: Plasma pharmacokinetics after single PO or IV administration (Example 5), LC-MS/MS
- run_conditions: female, Sprague Dawley, rat, plasma, po, 48 mg/kg, AUC0-last (hr*ng/mL) Mean ± StdDev, Group 3: 48 mg/kg PO, ORA-Plus; free base
endpoint: AUC(0-t)

| structure_as_smiles | assay_result |
| --- | --- |
| CC(C)(C)CNCCn1c(Sc2cc3c(cc2I)OCO3)nc2c(N)ncnc21 | 5220 ng·h/mL |

====

- method_notes: Plasma pharmacokinetics after single oral dose in ORA-Plus or SyrSpend SF (Example 6), LC-MS/MS
- Assay type: in vivo, Sprague Dawley rats
- run_conditions: female, Sprague-Dawley, rat, plasma, po, 48 mg/kg, G4: 2HCl, 48 mg/kg single oral dose, ORA-plus, rat plasma
endpoint: AUC(0-inf) (ng·h/mL)

| molecule | assay_result |
| --- | --- |
| CC(C)(C)CNCCn1c(Sc2cc3c(cc2I)OCO3)nc2c(N)ncnc21 [Compound 2 2HCl] | 6370 |

====

- method_notes: Plasma pharmacokinetics after single oral dose in ORA-Plus or SyrSpend SF (Example 6), LC-MS/MS
- Assay type: in vivo, Sprague Dawley rats
- run_conditions: female, Sprague-Dawley, rat, plasma, po, 48 mg/kg, G8: free base, 48 mg/kg single oral dose, SyrSpend, rat plasma

| structure_as_smiles | AUC(0-inf) / µg·h/mL |
| --- | --- |
| CC(C)(C)CNCCn1c(Sc2cc3c(cc2I)OCO3)nc2c(N)ncnc21 | 8.08 |

====

- method_notes: Plasma pharmacokinetics after single oral dose in ORA-Plus or SyrSpend SF (Example 6), LC-MS/MS
- Format: in vivo, Sprague Dawley rats
- run_conditions: female, Sprague Dawley, rat, plasma, po, 48 mg/kg, G2: free base, 48 mg/kg single oral dose, ORA-plus, rat plasma

| structure_as_smiles | Cmax [ng/mL] |
| --- | --- |
| CC(C)(C)CNCCn1c(Sc2cc3c(cc2I)OCO3)nc2c(N)ncnc21 | 803 |
